- target: T1, human corticotrophin releasing hormone receptor type 2 (CRHR2) (human, UniProt Q13324 1-411)
- T1 sequence (looked up): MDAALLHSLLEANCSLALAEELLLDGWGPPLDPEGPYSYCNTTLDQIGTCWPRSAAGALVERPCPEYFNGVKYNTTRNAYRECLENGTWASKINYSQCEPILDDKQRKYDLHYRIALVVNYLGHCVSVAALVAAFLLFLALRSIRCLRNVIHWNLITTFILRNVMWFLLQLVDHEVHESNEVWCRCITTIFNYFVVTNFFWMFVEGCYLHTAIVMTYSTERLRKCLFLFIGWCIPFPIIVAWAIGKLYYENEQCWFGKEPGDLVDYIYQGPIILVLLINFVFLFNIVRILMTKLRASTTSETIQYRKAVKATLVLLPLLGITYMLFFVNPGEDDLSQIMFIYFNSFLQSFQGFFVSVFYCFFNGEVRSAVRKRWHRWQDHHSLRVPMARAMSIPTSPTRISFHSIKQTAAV
- test description: cell-based or functional assay
Where no end group is shown, it is not given here.
observed property: Log DR (log10)

binder | result units | recorded result
CKFTLSLDVPTNIMNLLFNIAKAKNLRAQAAANAHLMAQI-NH2 [Cys-variant stresscopin-like peptide SEQ ID NO: 2] | log10 | 0.72
TKFTLSLDVPTNIMCLLFNIAKAKNLRAQAAANAHLMAQI (NES-PEG (about 20 kDa) on Cys 15; C-terminal amide (-NH2)) [Pegylated Cys-variant stresscopin-like peptide with NES linker and PEG about 20 kDa SEQ ID NO: 69] | log10 | 2.09

I = TKFTLSLDVPTNIMNLLFNCAKAKNLRAQAAANAHLMAQI-NH2 [Cys-variant stresscopin-like peptide SEQ ID NO: 21]
II = TKFTLSLDCPTNIMNLLFNIAKAKNLRAQAAANAHLMAQI-NH2 [Cys-variant stresscopin-like peptide SEQ ID NO: 10]
Request: Of I and II , which one carries the higher reported Log DR? Give the label of your selection.
Response: II
